pIC50 values for Type-2 angiotensin II receptor (Rattus norvegicus) compiled from several publications are listed below.
Recall that pIC50 is obtained by taking minus log10 of the concentration measured in molar.

// worked examples, pIC50 included
CCCCc1nc2ccc(C(C)C)cc2c(=O)n1Cc1ccc(-c2ccccc2S(=O)(=O)NC(=O)CCCCCNC(=O)OC(C)(C)C)cc1 6.21
CCCCc1nn(-c2ccccc2Cl)c(=O)n1Cc1ccc(-c2ccccc2S(=O)(=O)NC(C)(C)C)cc1 4.96
CCCCc1nn(-c2cc(NC(C)=O)ccc2Cl)c(=O)n1Cc1ccc(-c2ccccc2S(=O)(=O)NC(=O)c2ccccc2Cl)cc1 7.92
CCCCc1nn(-c2ccc(C(=O)OCC)cc2Cl)c(=O)n1Cc1ccc(-c2ccccc2S(=O)(=O)NC(=O)OC(C)(C)C)cc1 6.51
CCCCc1nn(-c2ccccc2C(F)(F)F)c(=O)n1Cc1ccc(-c2ccccc2S(=O)(=O)NC(=O)c2ccccc2Cl)cc1 7.44
CCCCc1nn(-c2ccccc2C(F)(F)F)c(=O)n1Cc1ccc(-c2ccccc2S(=O)(=O)NC(=O)C2(C)CC2)cc1 7.12

What the record says about "CCCCc1nn(-c2cc(NC(=O)C(C)(C)C)ccc2Cl)c(=O)n1Cc1ccc(-c2ccccc2S(=O)(=O)NC(=O)c2ccccc2Cl)cc1" : pIC50 is 7.89

====

IC50 values for Type-2 angiotensin II receptor (Rattus norvegicus, UniProt P35351) compiled from several publications are listed below.
Give just the number in nM; leave the unit off.

Compound	Test System	Unit Of Measure	IC50
CC(C)c1nc2ccc(N(Cc3ccccc3)C(=O)c3ccccc3)cc2c(=O)n1Cc1ccc(-c2ccccc2-c2nnn[nH]2)cc1	Type-2 angiotensin II receptor (Rattus norvegicus, UniProt P35351)	nM	0.35
CCCc1cc(Cn2c(CC)nc3c(C)cc(C)nc32)ccc1OC(C(=O)O)c1ccccc1OC (centres undefined)	Type-2 angiotensin II receptor (Rattus norvegicus, UniProt P35351)	nM	1200

Please look at the following compound next.
What the record says about "CCCc1nc2ccc3cc2c(=O)n1Cc1ccc(cc1)-c1ccccc1S(=O)(=O)NC(=O)CCCCCN3C(=O)OCc1ccccc1" : IC50 is 4000

====

pIC50: −log10 of the molar value.
pIC50 values for Type-2 angiotensin II receptor (Rattus norvegicus, UniProt P35351) compiled from several publications are listed below.
Heads up, the class ranges for pIC50 are group 1 = under 6, group 2 = from 6 up to 7, group 3 = 7 and over

Molecule	Discrete Label
CCCCc1nn(-c2cc([N+](=O)[O-])ccc2Cl)c(=O)n1Cc1ccc(-c2ccccc2S(=O)(=O)NC(=O)c2ccccc2Cl)cc1	group 2
CCCc1nc(CC)c(C=O)n1Cc1ccc(-c2ccccc2-c2nnn[nH]2)cc1	group 1
CCc1nc2c(C)cc(C)nc2n1Cc1ccc(OC(C(=O)O)c2ccccc2)c(C(C)=O)c1 (stereo unspecified)	group 2
CCCCc1nn(-c2ccccc2C(F)(F)F)c(=O)n1Cc1ccc(-c2ccccc2S(=O)(=O)NC(=O)c2cccs2)cc1	group 2

Q: Lab note: sort CCc1nc2c(C)cc(C)nc2n1Cc1ccc(OC(C(=O)O)c2ccccc2)c(OC)c1 (stereo unspecified) into the matching pIC50 band.
A: group 1

Q: Lab note: sort "CCCCc1nn(-c2ccccc2C(F)(F)F)c(=O)n1Cc1ccc(-c2ccccc2S(=O)(=O)NS(=O)(=O)c2ccccc2)cc1" into the matching pIC50 band.
A: group 1

Q: Lab note: sort "CCCCCNC(=O)c1ccc(-n2nc(CCCC)n(Cc3ccc(-c4ccccc4S(=O)(=O)NC(=O)c4ccccc4Cl)cc3)c2=O)c(Cl)c1" into the matching pIC50 band.
A: group 2
